For each entry below, report its IC50 value.
Target: Sialidase-4 (Homo sapiens, UniProt Q8WWR8)
Sequence (Q8WWR8 whole entry): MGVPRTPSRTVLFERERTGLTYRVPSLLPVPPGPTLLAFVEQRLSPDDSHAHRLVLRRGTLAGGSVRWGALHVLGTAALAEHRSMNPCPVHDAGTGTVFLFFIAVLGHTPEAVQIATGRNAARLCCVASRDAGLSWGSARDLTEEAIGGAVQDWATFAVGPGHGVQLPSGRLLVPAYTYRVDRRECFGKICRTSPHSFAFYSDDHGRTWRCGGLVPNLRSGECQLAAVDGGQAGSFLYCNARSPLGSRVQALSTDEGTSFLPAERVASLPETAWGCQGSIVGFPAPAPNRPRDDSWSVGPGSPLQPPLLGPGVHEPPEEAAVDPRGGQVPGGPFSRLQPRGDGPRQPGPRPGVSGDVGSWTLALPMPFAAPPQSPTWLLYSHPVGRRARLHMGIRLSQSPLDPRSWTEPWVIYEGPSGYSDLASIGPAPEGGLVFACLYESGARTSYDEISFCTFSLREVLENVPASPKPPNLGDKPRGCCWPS
Experiment: Inhibition of human Neu4 expressed in HEK293T cells using GM3 as substrate incubated for 30 mins by HPLC analysis
Type: cell-based, HEK-293T

>  <Record smiles>
CCCCC(=O)NC[C@@H](O)[C@@H](O)[C@@H]1OC(C(=O)O)=C[C@H](NC(=N)N)[C@H]1NC(C)=O.O=C(O)C(F)(F)F

>  <Measurement>
> 700 µM

$$$$

// IC50 value for "CC(=O)N[C@H]1[C@H]([C@H](O)[C@H](O)CNC(=O)C2CC2)OC(C(=O)O)=C[C@@H]1NC(=N)N.O=C(O)C(F)(F)F" : > 1000 µM

====

For each entry below, report its IC50 value.
Molecular target: Sialidase-3 (Homo sapiens)
Sequence (Q9UQ49 whole entry): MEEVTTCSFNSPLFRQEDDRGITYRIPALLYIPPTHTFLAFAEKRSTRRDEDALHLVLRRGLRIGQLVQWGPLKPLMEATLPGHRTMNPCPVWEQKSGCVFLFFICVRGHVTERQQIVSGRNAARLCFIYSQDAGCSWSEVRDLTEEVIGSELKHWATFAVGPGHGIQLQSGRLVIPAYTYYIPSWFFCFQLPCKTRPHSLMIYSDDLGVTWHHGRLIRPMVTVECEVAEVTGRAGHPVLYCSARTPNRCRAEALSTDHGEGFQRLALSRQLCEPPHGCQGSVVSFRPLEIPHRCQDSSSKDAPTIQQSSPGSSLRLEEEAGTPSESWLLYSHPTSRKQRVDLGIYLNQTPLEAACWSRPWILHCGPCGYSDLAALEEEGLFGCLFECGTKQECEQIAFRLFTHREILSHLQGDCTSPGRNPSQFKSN
Test: Inhibition of human Neu3 expressed in HEK293T cells using GM3 as substrate incubated for 30 mins by HPLC analysis

Example entries and their recorded answers appear below.
>  <Record smiles>
CC(=O)N[C@H]1[C@H]([C@H](O)[C@H](O)CNC(=O)C2CC2)OC(C(=O)O)=C[C@@H]1NC(=N)N.O=C(O)C(F)(F)F

>  <IC50>
> 1000 µM

$$$$
>  <Record smiles>
CC(=O)N[C@H]1[C@H]([C@H](O)[C@H](O)CO)OC(C(=O)O)=C[C@@H]1O

>  <IC50>
50 µM

$$$$

// IC50 value for "CCCCC(=O)NC[C@@H](O)[C@@H](O)[C@@H]1OC(C(=O)O)=C[C@H](NC(=N)N)[C@H]1NC(C)=O.O=C(O)C(F)(F)F" : > 1000 µM

====

Molecular target: Sialidase-1 (Homo sapiens)
Experiment: Inhibition of human Neu1 expressed in HEK293T cells using 4MU-Neu5Ac as substrate incubated for 30 mins by HPLC analysis
pIC50: −log10 of the molar value.
Endpoint label: pIC50

Example entries and their recorded answers appear below.
>  <Record smiles>
CCCCC(=O)NC[C@@H](O)[C@@H](O)[C@@H]1OC(C(=O)O)=C[C@H](NC(=N)N)[C@H]1NC(C)=O.O=C(O)C(F)(F)F

>  <Measurement>
< 3.15

$$$$
>  <Record smiles>
CC(=O)N[C@H]1[C@H]([C@H](O)[C@H](O)CO)OC(C(=O)O)=C[C@@H]1NC(=N)N

>  <Measurement>
< 3.00

$$$$

Could you now look at the following compound, please?
// pIC50 value for "CC(=O)N[C@H]1[C@H]([C@H](O)[C@H](O)CNC(=O)C2CC2)OC(C(=O)O)=C[C@@H]1NC(=N)N.O=C(O)C(F)(F)F" : < 3.00

====

Target: Neuraminidase (Influenza A virus, UniProt B4URF0)
Sequence (B4URF0 whole entry): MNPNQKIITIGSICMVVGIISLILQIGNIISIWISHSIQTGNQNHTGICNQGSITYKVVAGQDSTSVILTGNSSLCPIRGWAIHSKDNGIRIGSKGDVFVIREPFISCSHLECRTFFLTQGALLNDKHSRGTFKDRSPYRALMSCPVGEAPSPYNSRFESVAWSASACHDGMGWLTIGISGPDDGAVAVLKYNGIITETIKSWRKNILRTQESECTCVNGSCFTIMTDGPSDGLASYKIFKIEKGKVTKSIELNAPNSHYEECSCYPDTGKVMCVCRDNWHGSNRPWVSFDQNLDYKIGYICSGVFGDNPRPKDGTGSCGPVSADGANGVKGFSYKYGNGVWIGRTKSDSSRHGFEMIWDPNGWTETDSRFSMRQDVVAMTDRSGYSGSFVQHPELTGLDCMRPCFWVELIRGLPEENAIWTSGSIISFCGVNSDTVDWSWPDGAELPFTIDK
Assay: Inhibition of Influenza A virus (A/duck/Tsukuba/67/2005(H1N1)) neuraminidase N1 activity using 4MU-Neu5Ac as substrate preincubated for 15 mins followed by substrate addition measured after 15 mins by fluorescence analysis
Endpoint label: IC50 (nM)
Give bare numbers, in nM.

Case CC(=O)N[C@H]1[C@H]([C@H](O)[C@H](O)CO)OC(C(=O)O)=C[C@@H]1O [NEU5AC2EN] , Neuraminidase (Influenza A virus, UniProt B4URF0), IC50 recorded as 1000

====

Target: Neuraminidase (Influenza A virus, UniProt B4URF0)
Test: Inhibition of Influenza A virus (A/duck/Tsukuba/28/2005(H6N2)) neuraminidase N2 activity using 4MU-Neu5Ac as substrate preincubated for 15 mins followed by substrate addition measured after 15 mins by fluorescence analysis
Endpoint label: pIC50
One number for each entry, as −log10 of the molar value.

// pIC50 value for "CC(=O)N[C@H]1[C@H]([C@H](O)[C@H](O)CO)OC(C(=O)O)=C[C@@H]1O" : 6.00

====

For each entry below, report its pIC50 value.
System: Influenza A virus
Assay: Antiviral activity against Influenza A virus (A/Aichi/102/2008(H3N2)) infected in dog AX4 cells preincubated for 1 hr followed by infection measured after 19 to 20 hrs by galactosidase-based fluorescence assay and peroxidase-based chromogenic assay
Type: functional, organism-based
One number for each entry, as −log10 of the molar value.

Example entries and their recorded answers appear below.
>  <Record smiles>
CCC(CC)OC[C@@H]1CC(C(=O)O)=C[C@H](N)[C@H]1NC(C)=O

>  <Test system>
Influenza A virus

>  <pIC50>
10.40

$$$$
>  <Record smiles>
CC(=O)N[C@H]1[C@H]([C@H](O)[C@H](O)CNC(=O)C2CC2)OC(C(=O)O)=C[C@@H]1NC(=N)N.O=C(O)C(F)(F)F

>  <Test system>
Influenza A virus

>  <pIC50>
8.90

$$$$

Could you now look at the following molecule, please?
// pIC50 value for "CCCCC(=O)NC[C@@H](O)[C@@H](O)[C@@H]1OC(C(=O)O)=C[C@H](NC(=N)N)[C@H]1NC(C)=O.O=C(O)C(F)(F)F" : 7.40

// provenance: ChEMBL document CHEMBL3817735
